FYI, the data here is from patent US12441733B2.

Overview of reported DC50 across a group of compounds:
- subject.of.test: BTK(C481S)-GFP (Homo sapiens, UniProt Q06187+Q96SW2, C481S)
- Construct: CHYSEL (cis-acting hydrolase element, 2A) remnant after GFP; mCherry is split off as a separate protein (C); expressed in transfected cells; host or cells: TMD8 cells, lentiviral transduction with pLenti6-BTK(C481S)-GFP-CHYSEL-mCherry
- Sequence (Q06187 whole entry C481S): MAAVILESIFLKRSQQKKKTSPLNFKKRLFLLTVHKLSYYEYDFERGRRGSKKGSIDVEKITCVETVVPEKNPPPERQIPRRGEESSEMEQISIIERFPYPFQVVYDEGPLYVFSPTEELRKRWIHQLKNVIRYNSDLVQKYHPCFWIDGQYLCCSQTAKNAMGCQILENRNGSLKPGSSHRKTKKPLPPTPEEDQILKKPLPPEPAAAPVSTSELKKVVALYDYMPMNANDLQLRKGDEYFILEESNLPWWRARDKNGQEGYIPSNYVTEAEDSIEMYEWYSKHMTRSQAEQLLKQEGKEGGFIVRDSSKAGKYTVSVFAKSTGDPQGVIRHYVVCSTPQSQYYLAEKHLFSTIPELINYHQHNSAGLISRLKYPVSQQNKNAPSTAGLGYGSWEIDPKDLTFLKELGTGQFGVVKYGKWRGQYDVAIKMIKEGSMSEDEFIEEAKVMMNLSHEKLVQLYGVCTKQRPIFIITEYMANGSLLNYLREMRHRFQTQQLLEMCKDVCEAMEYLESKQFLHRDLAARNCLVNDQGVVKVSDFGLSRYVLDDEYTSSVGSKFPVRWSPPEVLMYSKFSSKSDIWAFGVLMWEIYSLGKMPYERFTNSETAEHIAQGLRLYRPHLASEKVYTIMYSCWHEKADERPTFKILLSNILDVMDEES
- Sequence (Q96SW2 whole entry): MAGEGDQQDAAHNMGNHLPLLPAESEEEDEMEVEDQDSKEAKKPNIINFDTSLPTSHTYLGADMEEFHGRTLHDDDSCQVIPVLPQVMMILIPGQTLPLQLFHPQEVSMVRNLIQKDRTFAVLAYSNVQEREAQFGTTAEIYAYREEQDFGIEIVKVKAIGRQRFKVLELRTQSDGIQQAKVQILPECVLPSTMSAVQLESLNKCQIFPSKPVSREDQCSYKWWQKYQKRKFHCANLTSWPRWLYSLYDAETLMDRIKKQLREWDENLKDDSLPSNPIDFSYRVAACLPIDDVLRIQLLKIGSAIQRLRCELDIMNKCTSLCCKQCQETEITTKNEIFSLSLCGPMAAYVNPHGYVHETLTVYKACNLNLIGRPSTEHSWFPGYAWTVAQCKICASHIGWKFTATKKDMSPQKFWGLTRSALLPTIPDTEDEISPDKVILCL
- Sequence (Q16531 whole entry partner): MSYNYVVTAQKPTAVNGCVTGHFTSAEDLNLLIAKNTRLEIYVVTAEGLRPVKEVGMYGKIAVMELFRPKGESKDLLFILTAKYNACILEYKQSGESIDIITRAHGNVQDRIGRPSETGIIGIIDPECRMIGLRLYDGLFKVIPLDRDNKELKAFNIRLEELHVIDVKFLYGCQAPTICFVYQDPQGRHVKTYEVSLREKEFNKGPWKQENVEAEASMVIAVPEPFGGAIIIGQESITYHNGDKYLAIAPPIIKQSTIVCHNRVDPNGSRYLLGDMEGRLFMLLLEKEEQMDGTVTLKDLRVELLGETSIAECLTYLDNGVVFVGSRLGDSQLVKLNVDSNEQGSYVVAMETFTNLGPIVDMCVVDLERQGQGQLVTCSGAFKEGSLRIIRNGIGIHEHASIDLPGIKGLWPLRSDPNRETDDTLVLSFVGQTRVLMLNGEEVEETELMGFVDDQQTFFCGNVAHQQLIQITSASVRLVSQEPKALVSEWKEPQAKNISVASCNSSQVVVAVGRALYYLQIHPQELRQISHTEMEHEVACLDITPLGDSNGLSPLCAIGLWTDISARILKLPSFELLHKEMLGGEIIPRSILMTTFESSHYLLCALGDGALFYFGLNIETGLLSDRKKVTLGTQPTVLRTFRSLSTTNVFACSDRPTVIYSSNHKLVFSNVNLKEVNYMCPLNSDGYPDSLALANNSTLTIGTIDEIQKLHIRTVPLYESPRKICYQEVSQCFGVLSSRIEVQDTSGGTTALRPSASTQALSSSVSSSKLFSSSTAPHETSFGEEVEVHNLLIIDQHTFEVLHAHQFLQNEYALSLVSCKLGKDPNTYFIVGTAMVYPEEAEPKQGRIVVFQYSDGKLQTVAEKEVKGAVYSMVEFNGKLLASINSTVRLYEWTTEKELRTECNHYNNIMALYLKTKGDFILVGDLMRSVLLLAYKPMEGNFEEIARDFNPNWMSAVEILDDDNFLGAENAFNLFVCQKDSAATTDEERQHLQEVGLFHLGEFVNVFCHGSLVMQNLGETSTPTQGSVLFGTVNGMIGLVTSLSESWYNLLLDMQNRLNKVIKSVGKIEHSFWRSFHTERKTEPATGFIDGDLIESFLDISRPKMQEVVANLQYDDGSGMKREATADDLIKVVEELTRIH
- procedure.details: BTK(C481S)-GFP protein abundance flow cytometry assay in TMD8 cells
- Assay type: cell-based
- cond: TMD8 cells expressing BTK(C481S)-GFP, GFP signal by flow cytometry
assay.metric: DC50 (nM)

>>> assay_value("CCOc1ccc(C(=O)N2CCC3(CCN(Cc4ccc(-c5cc6c(-c7cc(F)cc(NC(=O)c8ccc(C(C)(C)O)cc8F)c7C)ncnc6[nH]5)cc4)CC3)CC2)cc1N1CCC(=O)NC1=O [Compound 4]")
2.08
>>> assay_value("COc1ccc(C(=O)N2CCC(OC3CCN(Cc4ccc(-c5cc6c(-c7cc(F)cc(NC(=O)c8ccc(C(C)(C)O)cc8F)c7C)ncnc6[nH]5)cc4)CC3)CC2)cc1N1CCC(=O)NC1=O [Compound 8]")
2.08
>>> assay_value("COc1ccc(C(=O)N2CCC3(CC2)CCN(C(C)(C)Cc2ccc(-c4cc5c(-c6cc(F)cc(NC(=O)c7ccc(C(C)(C)O)cc7F)c6C)ncnc5[nH]4)cc2)CC3)cc1N1CCC(=O)NC1=O [Compound 20]")
0.68
>>> assay_value("COc1ccc(C(=O)N2CCN(C(=O)N3CCN(Cc4ccc(-c5cc6c(-c7cc(F)cc(NC(=O)c8ccc(C(C)(C)O)cc8F)c7C)ncnc6[nH]5)cc4)CC3)CC2)cc1N1CCC(=O)NC1=O [Compound 22]")
2.47
>>> assay_value("COc1ccc(C(=O)N2CCC(OC3CCN(CCc4ccc(-c5cc6c(-c7cc(F)cc(NC(=O)c8ccc(C(C)(C)O)cc8F)c7C)ncnc6[nH]5)cc4)CC3)CC2)cc1N1CCC(=O)NC1=O [Compound 34]")
1.94
